# System: Uromyces appendiculatus
# Assay Info: In vivo preventive test on Uromyces appendiculatus (bean rust)
# Experimental Parameters: 240 h, 125 ppm of active ingredient, sprayed 72 hours before inoculation, evaluated 10 days after inoculation, read-out: efficacy
Items are presented alongside their recorded pest or weed control at 125 ppm.

- Compound: "CCOC(=O)C1(NC(=O)c2sc(Br)c(Br)c2C)COC1 [I.014]"
  pest or weed control at 125 ppm: "90 to 100%"
- Compound: "Cc1c(C(=O)NC2(C(=O)O)CCC2)sc(Br)c1Br [I.137]"
  pest or weed control at 125 ppm: "90 to 100%"
- Compound: "O=C(NC(C(=O)O)C1CC1)c1cc(Cl)c(Cl)s1 (centres unmarked) [CMP9, reference compound]"
  pest or weed control at 125 ppm: "< 40%"
- Compound: "CCSC(=O)C1(NC(=O)c2sc(Cl)c(Cl)c2C)CC1 [I.049]"
  pest or weed control at 125 ppm: "90 to 100%"
- Compound: "CCOC(=O)C(COC)NC(=O)c1sc(Cl)c(Cl)c1C (centres unmarked) [I.044]"
  pest or weed control at 125 ppm: "90 to 100%"
- Compound: "CCOC(=O)C1(NC(=O)c2sc(Br)c(Br)c2C)CCC1 [I.132]"
  pest or weed control at 125 ppm: "90 to 100%"
- Compound: "C=CC1CC1(NC(=O)c1sc(Br)c(Br)c1C)C(=O)OC (centres unmarked) [I.003]"
  pest or weed control at 125 ppm: "90 to 100%"
- Compound: "COC(=O)[C@H](CCCNC(=N)N)NC(=O)c1sc(Br)c(Br)c1C [I.035]"
  pest or weed control at 125 ppm: "80 to 89%"
- Compound: "COC(=O)C(CC(F)F)NC(=O)c1sc(Br)c(Br)c1C (centres unmarked) [I.108]"
  pest or weed control at 125 ppm: "90 to 100%"
- Compound: "Cc1c(C(=O)NC(C(=O)O)C2CC2)sc(Cl)c1Cl (centres unmarked) [I.095]"
  pest or weed control at 125 ppm: "90 to 100%"
- Compound: "CCOC(=O)C(CO)NC(=O)c1sc(Br)c(Br)c1C (centres unmarked) [I.006]"
  pest or weed control at 125 ppm: "80 to 89%"
- Compound: "COC(=O)C(NC(=O)c1sc(Br)c(Br)c1C)C1CC1 (centres unmarked) [I.032]"
  pest or weed control at 125 ppm: "90 to 100%"
- Compound: "Cc1c(C(=O)NC2(C(=O)O)CCC2)sc(Cl)c1Cl [I.175]"
  pest or weed control at 125 ppm: "70 to 79%"
- Compound: "COC(=O)C(C)(C)NC(=O)c1sc(Cl)c(Cl)c1C [I.176]"
  pest or weed control at 125 ppm: "90 to 100%"
- Compound: "Cc1c(C(=O)NC(C)(C)C(=O)O)sc(Cl)c1Cl [I.174]"
  pest or weed control at 125 ppm: "90 to 100%"
- Compound: "COC(=O)C1(NC(=O)c2sc(Cl)c(Cl)c2C)CCC1 [I.171]"
  pest or weed control at 125 ppm: "90 to 100%"
- Compound: "Cc1c(C(=S)NC2(C(=O)O)CC2)sc(Cl)c1Cl [I.060]"
  pest or weed control at 125 ppm: "90 to 100%"
- Compound: "CCOC(=O)C1(NC(=O)c2sc(Cl)c(Cl)c2C)CCC1 [I.047]"
  pest or weed control at 125 ppm: "90 to 100%"
- Compound: "Cc1c(C(=O)NC(CC(N)=O)C(=O)O)sc(Br)c1Br (centres unmarked) [I.076]"
  pest or weed control at 125 ppm: "80 to 89%"
- Compound: "COC(=O)C(NC(=O)c1sc(Cl)c(Cl)c1C)C1CC1 (centres unmarked) [I.081]"
  pest or weed control at 125 ppm: "90 to 100%"
- Compound: "COC(=O)C(CC(F)F)NC(=O)c1sc(Cl)c(Cl)c1C (centres unmarked) [I.043]"
  pest or weed control at 125 ppm: "80 to 89%"
- Compound: "CCOC(=O)C(NC(=O)c1sc(Cl)c(Cl)c1C)C1CC1 (centres unmarked) [I.083]"
  pest or weed control at 125 ppm: "90 to 100%"
- Compound: "CCOC(=O)C(CC(N)=O)NC(=O)c1sc(Br)c(Br)c1C (centres unmarked) [I.016]"
  pest or weed control at 125 ppm: "90 to 100%"
- Compound: "CCOC(=O)C(C#N)NC(=O)c1sc(Br)c(Br)c1C (centres unmarked) [I.077]"
  pest or weed control at 125 ppm: "90 to 100%"
- Compound: "CCCOC(=O)C1(NC(=O)c2sc(Br)c(Br)c2C)CCC1 [I.133]"
  pest or weed control at 125 ppm: "90 to 100%"
- Compound: "COC(=O)CC[C@H](NC(=O)c1sc(Br)c(Br)c1C)C(=O)OC [I.136]"
  pest or weed control at 125 ppm: "90 to 100%"
- Compound: "COC(=O)C1(NC(=O)c2sc(Br)c(Br)c2C)CCC1 [I.131]"
  pest or weed control at 125 ppm: "90 to 100%"
- Compound: "COC(=O)C(NC(=O)c1sc(Cl)c(Cl)c1C)c1cccs1 (centres unmarked) [I.165]"
  pest or weed control at 125 ppm: "90 to 100%"
- Compound: "CCOC(=O)C(NC(=O)c1sc(Cl)c(Cl)c1C)C(F)(F)F (centres unmarked) [I.164]"
  pest or weed control at 125 ppm: "90 to 100%"

###

# Assay Info: LogP by HPLC on reversed phase columns (EEC directive 79/831 Annex V.A8)
# Format: physicochemical
# Experimental Parameters: method [a]

- Molecule: "CCOC(=O)CC(NC(=O)c1sc(Cl)c(Cl)c1C)C(=O)OCC (centres unmarked)"
  LogP: "3.76^[a]"
- Molecule: "CCOC(=O)C(NC(=O)c1sc(Cl)c(Cl)c1C)C(=O)OCC"
  LogP: "3.81^[a]"
- Molecule: "Cc1c(C(=S)NC2(C(=O)OC3CCC3)CC2)sc(Br)c1Br"
  LogP: "4.66^[a]"
- Molecule: "Cc1c(C(=O)NCC#N)sc(Br)c1Br"
  LogP: "2.59^[a]"
- Molecule: "COC(=O)C(C)(Cc1ccccc1)NC(=O)c1sc(Cl)c(Cl)c1C (centres unmarked)"
  LogP: "4.60^[a]"
- Molecule: "CCOC(=O)C(C(C)C)N(C)C(=O)c1sc(Cl)c(Cl)c1C (centres unmarked)"
  LogP: "4.44^[a]"
- Molecule: "Cc1c(C(=O)NC(CO)C(=O)O)sc(Cl)c1Cl (centres unmarked)"
  LogP: "1.84^[a]"
- Molecule: "Cc1c(C(=S)NCC(=O)O)sc(Cl)c1Cl"
  LogP: "2.71^[a]"
- Molecule: "COC(=O)C(C)NC(=S)c1sc(Br)c(Br)c1C (centres unmarked)"
  LogP: "4.05^[a]"
- Molecule: "Cc1c(C(=O)NCC(N)=O)sc(Cl)c1Cl"
  LogP: "1.75^[a]"
- Molecule: "CCOC(=O)CN(C(=O)c1sc(Cl)c(Cl)c1C)C1CC1"
  LogP: "3.75^[a]"

###

# Assay Info: LogP by HPLC on reversed phase columns (EEC directive 79/831 Annex V.A8)
# Format: physicochemical
# Experimental Parameters: reversed phase HPLC columns; method [a]
Note to self: values exactly at 3 are true. So chromatographic logP at or above 3 is true, below is false.

- Molecule: "CCCSC(=O)C1(NC(=O)c2sc(Br)c(Br)c2C)CC1"
  Group: "true"
- Molecule: "COC(=O)C(NC(=O)c1sc(Cl)c(Cl)c1C)c1cccs1 (stereo not shown)"
  Group: "true"
- Molecule: "Cc1c(C(=O)NC2(C(=O)O)CCC2)sc(Br)c1Br"
  Group: "false"
- Molecule: "CCOC(=O)C1(NC(=O)c2sc(Br)c(Br)c2C)COC1"
  Group: "false"
- Molecule: "CCOC(=O)C(CC(N)=O)NC(=O)c1sc(Br)c(Br)c1C (stereo not shown)"
  Group: "false"
- Molecule: "CCOC(=O)C(COC)NC(=O)c1sc(Br)c(Br)c1C (stereo not shown)"
  Group: "true"
- Molecule: "CCOC(=O)C(CO)NC(=O)c1sc(Br)c(Br)c1C (stereo not shown)"
  Group: "false"
- Molecule: "CCOC(=O)C(CC(N)=O)NC(=O)c1sc(Cl)c(Cl)c1C (stereo not shown)"
  Group: "false"
- Molecule: "COC(=O)C(Cc1c[nH]cn1)NC(=O)c1sc(Br)c(Br)c1C (stereo not shown)"
  Group: "false"
- Molecule: "COC(=O)C1(NC(=O)c2sc(Cl)c(Cl)c2C)CCC1"
  Group: "true"
